As shown below, each of these sequences has a reported self-splicing fitness (ln) value.
Assay: self-splicing fitness, log relative to wild type (ln ratio); higher = more splicing; Tetrahymena group I intron in knt gene, E. coli kanamycin selection, DiMSum; sequences stand for … in CUCUCU…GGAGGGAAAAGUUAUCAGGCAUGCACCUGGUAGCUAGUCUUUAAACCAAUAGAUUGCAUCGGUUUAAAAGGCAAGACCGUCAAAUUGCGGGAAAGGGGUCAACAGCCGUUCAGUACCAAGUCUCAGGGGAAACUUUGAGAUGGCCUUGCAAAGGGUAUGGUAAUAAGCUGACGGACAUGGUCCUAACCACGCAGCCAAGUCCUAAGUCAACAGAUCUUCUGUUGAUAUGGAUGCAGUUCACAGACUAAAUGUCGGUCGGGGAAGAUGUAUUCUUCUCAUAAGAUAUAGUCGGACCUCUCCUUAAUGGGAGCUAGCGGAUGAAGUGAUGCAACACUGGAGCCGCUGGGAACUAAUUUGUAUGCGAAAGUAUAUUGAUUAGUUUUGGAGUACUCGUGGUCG;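 also: selection with 25 µg/mL kanamycin versus none on LB agar overnight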
Conditions: 30 °C
When you answer, write just the number.

Some solved cases for reference:
# RESIDUES, NUMBER
data = [
    ("AACCAGCAAUAUUACGAUGG", -2.91),
    ("GGGAAGCAAUAUUACGCUGC", -2.83),
    ("UGAAAGCAAUAUUACGUUUU", -3.67),
    ("GCGCAGCAAUAUUACGGAUC", -0.0635),
]

In one line, give reported self-splicing fitness (ln) of the entry CCCAAGCAAUAUUACGGAAC .
-3.54

In one line, give reported self-splicing fitness (ln) of the entry GCAUAGCAAUAUUACGGUUC .
-2.21

In one line, give reported self-splicing fitness (ln) of the entry CUUGAGCAAUAUUACGCUAA .
-4.05

In one line, give reported self-splicing fitness (ln) of the entry UGGCAGCAAUAUUACGCAUU .
-1.05

In one line, give reported self-splicing fitness (ln) of the entry AGCAAGCAAUAUUACGUUCU .
-0.601

In one line, give reported self-splicing fitness (ln) of the entry GGGUAGCAAUAUUACGGCAC .
-0.322

In one line, give reported self-splicing fitness (ln) of the entry CAUCAGCAAUAUUACGCUCG .
-0.495

In one line, give reported self-splicing fitness (ln) of the entry GUCGAGCAAUAUUACGUGGG .
-2.55

In one line, give reported self-splicing fitness (ln) of the entry GCCGAGCAAUAUUACGAUCG .
-2.36

In one line, give reported self-splicing fitness (ln) of the entry GGACAGCAAUAUUACGUAAG .
-0.165

---

Experiment: self-splicing fitness, log relative to wild type (ln ratio); higher = more splicing; Tetrahymena group I intron in knt gene, E. coli kanamycin selection, DiMSum; sequences stand for … in CUCUCU…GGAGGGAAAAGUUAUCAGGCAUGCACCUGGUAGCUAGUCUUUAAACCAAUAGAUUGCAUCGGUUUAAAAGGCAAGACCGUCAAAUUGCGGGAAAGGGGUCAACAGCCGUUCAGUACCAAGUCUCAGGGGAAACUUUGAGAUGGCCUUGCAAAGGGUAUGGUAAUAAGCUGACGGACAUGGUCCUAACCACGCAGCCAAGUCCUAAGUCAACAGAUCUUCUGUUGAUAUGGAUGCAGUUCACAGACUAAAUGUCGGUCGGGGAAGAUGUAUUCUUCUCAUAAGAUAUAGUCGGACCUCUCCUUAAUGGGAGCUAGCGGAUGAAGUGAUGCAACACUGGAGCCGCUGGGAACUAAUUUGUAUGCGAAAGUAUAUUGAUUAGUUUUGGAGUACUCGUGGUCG
Conditions: 30 °C
ATTRIBUTE MEASURED: self-splicing fitness (ln)
When you answer, write just the number.

# RESIDUES, ATTRIBUTE MEASURED, NUMBER
data = [
    ("UAGUAGCAAUAUUACGCAGC", "self-splicing fitness (ln)", -2.96),
    ("CUAUAGCAAUAUUACGACUU", "self-splicing fitness (ln)", -2.98),
]

Could you now look at the following sequence, please?
In one line, give reported self-splicing fitness (ln) of the entry UAUUAGCAAUAUUACGUCCC .
-2.83

---

Assay: self-splicing fitness, log relative to wild type (ln ratio); higher = more splicing; Tetrahymena group I intron in knt gene, E. coli kanamycin selection, DiMSum; sequences stand for … in CUCUCU…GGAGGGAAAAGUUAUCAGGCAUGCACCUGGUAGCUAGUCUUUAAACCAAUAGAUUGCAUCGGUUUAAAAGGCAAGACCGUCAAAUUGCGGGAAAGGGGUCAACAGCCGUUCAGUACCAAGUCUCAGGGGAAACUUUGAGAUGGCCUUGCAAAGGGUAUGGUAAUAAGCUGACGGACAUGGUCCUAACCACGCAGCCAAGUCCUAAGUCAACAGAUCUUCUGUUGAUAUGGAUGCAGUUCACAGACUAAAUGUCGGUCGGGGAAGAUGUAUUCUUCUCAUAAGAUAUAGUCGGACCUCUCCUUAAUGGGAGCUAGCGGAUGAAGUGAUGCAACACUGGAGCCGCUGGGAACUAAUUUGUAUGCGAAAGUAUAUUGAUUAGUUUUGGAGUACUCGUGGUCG
Conditions: 30 °C
As shown below, each of these sequences has a reported self-splicing fitness (ln) value.

# RESIDUES, self-splicing fitness (ln)
records = [
    ("GAGGAGCAAUAUUACGACAU", -2.07),
    ("AGAUAGCAAUAUUACGCUUG", -2.48),
    ("GUGAAGCAAUAUUACGUAUG", -2.38),
]

Could you now look at the following sequence, please?
In one line, give reported self-splicing fitness (ln) of the entry GCCUAGCAAUAUUACGUUUU .
-1.7

---

Assay: self-splicing fitness, log relative to wild type (ln ratio); higher = more splicing; Tetrahymena group I intron in knt gene, E. coli kanamycin selection, DiMSum; sequences stand for … in CUCUCU…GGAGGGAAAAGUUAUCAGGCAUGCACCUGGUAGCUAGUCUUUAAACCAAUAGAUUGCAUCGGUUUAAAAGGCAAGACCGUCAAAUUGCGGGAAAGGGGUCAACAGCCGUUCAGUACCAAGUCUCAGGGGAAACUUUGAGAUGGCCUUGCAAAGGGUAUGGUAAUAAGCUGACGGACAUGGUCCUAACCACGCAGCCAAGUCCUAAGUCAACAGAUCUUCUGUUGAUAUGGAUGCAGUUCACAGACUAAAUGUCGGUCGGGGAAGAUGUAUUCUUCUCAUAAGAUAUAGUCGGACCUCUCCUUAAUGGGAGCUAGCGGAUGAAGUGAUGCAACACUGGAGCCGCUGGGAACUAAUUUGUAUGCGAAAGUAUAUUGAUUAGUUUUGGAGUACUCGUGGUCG
Details: 37 °C
As shown below, each of these sequences has a reported self-splicing fitness (ln) value.
When you answer, write just the number.

# RESIDUES, NUMBER
measured = [
    ("CACAAGCAAUAUUACGUUAU", -2.7),
    ("AUACAGCAAUAUUACGACUC", 0.311),
]

In one line, give reported self-splicing fitness (ln) of the entry ACUCAGCAAUAUUACGUUAG .
-0.675

In one line, give reported self-splicing fitness (ln) of the entry GCCUAGCAAUAUUACGGCCC .
-0.535

---

Assay: self-splicing fitness, log relative to wild type (ln ratio); higher = more splicing; Tetrahymena group I intron in knt gene, E. coli kanamycin selection, DiMSum; sequences stand for … in CUCUCU…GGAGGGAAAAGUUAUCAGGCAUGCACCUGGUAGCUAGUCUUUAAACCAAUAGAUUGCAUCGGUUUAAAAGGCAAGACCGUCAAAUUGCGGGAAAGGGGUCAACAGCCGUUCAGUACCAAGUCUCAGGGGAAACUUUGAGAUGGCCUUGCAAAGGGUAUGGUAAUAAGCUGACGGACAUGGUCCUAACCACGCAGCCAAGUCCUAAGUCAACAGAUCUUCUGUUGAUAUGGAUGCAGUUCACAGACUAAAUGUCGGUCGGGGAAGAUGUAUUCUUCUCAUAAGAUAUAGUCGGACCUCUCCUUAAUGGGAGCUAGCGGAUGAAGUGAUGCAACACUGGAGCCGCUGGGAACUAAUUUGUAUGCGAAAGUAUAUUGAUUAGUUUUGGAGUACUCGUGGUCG
Details: 37 °C
Each record gets a class by self-splicing fitness (ln): band A = under -2, band B = from -2 up to -0.8, band C = -0.8 and over

Class? Entry: UUUUAGCAAUAUUACGUACG
band C

Class? Entry: CAAAAGCAAUAUUACGCUGC
band A

Class? Entry: CACCAGCAAUAUUACGAAGU
band B

Class? Entry: CAAUAGCAAUAUUACGACAC
band B

Class? Entry: CCGAAGCAAUAUUACGGAUG
band C

Class? Entry: CUAGAGCAAUAUUACGACAC
band A

Class? Entry: AUACAGCAAUAUUACGCUUU
band B

Class? Entry: UUAAAGCAAUAUUACGUACU
band C

Class? Entry: CGGUAGCAAUAUUACGUAGG
band C
